Target: T1, CAPRIN-1 protein expressed on the membrane surface of human cancer cells (human, UniProt Q14444 2-709)
T1 sequence (looked up): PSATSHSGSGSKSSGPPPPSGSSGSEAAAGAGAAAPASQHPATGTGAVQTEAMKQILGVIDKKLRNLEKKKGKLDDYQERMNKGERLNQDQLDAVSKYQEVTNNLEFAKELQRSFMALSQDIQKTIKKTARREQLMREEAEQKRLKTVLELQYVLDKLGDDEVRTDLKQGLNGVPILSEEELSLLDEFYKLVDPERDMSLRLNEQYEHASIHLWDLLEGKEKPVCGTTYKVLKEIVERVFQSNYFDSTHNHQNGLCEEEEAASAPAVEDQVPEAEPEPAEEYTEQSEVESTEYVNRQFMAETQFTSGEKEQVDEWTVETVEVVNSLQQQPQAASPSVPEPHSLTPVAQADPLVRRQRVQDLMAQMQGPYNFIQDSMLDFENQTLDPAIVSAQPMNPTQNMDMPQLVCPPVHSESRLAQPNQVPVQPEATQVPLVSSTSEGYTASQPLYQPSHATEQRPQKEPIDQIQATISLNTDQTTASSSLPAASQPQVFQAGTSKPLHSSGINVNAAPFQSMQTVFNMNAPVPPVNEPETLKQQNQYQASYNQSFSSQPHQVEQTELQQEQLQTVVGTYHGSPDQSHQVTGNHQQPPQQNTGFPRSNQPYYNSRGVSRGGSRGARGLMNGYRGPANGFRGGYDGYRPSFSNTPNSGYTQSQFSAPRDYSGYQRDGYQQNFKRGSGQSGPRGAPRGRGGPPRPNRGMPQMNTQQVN
Assay: cell-based or functional assay
Property: ADCC cytotoxic activity (51Cr release) on FaDu

Query :: Give reported ADCC cytotoxic activity (51Cr release) on FaDu value for humanized antibody #4 (antibody, V domains shown) VH: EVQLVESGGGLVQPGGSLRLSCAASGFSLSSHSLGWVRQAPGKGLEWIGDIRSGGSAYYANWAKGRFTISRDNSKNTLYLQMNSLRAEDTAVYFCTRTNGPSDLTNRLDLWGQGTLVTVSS VL: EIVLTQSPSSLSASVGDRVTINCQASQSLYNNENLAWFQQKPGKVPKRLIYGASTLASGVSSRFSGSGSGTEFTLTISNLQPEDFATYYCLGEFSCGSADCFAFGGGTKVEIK
Result :: ≥ 40%
